SUBJECT OF TEST: cGAMP binding domain of wild-type (GRR) human STING, residues 155-341 (Homo sapiens, UniProt Q86WV6, H232R)
Construct: His-TEV-hSTING (WT); TEV protease cleavage site (N); made in house; host or cells: E. coli BL21 DE3
Sequence (Q86WV6 with tags, fused parts or gaps H232R): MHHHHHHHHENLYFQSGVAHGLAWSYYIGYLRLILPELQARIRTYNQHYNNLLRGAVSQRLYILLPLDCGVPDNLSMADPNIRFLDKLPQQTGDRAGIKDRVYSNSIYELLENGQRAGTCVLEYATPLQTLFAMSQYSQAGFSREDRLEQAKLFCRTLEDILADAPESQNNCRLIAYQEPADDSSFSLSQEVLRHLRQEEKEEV
MEASUREMENT DESCRIPTION: Increase of stability of STING protein against thermal denaturation, Differential Scanning Fluorimetry (DSF)
RECORDED ENDPOINT: DSF (K)
Please state the figure in K; there is no need to write the unit.

Would you please look over these solved cases?
COMPOUND	RECORDED ENDPOINT	SCALE UNIT	VALUE
CNc1nc2nn(C)cc2cc1-n1nc(-c2cccc3nn(C[C@H](O)c4ccccc4)cc23)c(C(C)C)c1C	DSF	K	27
Cc1nc2nn(CCCC#N)cc2cc1-n1nc(-c2cccc3nn(C[C@H](O)c4ccccc4)cc23)c(C(C)C)c1C	DSF	K	28
Cc1c(C(C)C)c(-c2cccc3nn(C[C@H](O)c4ccccc4)cc23)nn1-c1cc2cn(C)nc2nc1C1CCCO1 (some centres unmarked)	DSF	K	30
Cc1nc2nn(C(C)C)cc2cc1-n1nc(-c2cccc3nn(C[C@H](O)c4ccccc4)cc23)c(C(C)C)c1C	DSF	K	28
Cc1c(-n2nc(-c3cccc4nn(C[C@H](O)c5ccccc5)cc34)c(C(C)C)c2C)ccn2c(C)cnc12	DSF	K	27
CNC(=O)CO[C@@H](Cn1cc2c(-c3nn(-c4cc5cn(C)nc5nc4C)c(C)c3C(C)C)cccc2n1)c1ccccc1	DSF	K	24
Cn1cc2cc(-c3nc(-c4cccc5nn(C[C@H](O)c6ccc(OCCC(C)(C)O)cc6)cc45)c(C4CC4)n3C)c(C3CC3)nc2n1	DSF	K	30
Cn1cc2cc(-c3nc(-c4cccc5nn(C[C@H](O)c6ccccc6)cc45)c(C4CC4)n3C)c(OC(F)F)cc2n1	DSF	K	29

Which DSF reading was recorded for the compound Cc1c(C(C)C)c(-c2cccc3nn(C[C@H](O)c4ccccc4)cc23)nn1-c1cc2cn(C)nc2nc1C1(C)CC1 ? 26

Which DSF reading was recorded for the compound CCO[C@@H](Cn1cc2c(-c3nn(-c4cc5cn(C)nc5nc4C)c(C)c3C(C)C)cccc2n1)c1ccccc1 ? 25

Which DSF reading was recorded for the compound Cn1c(-c2cc3cn(CCC#N)nc3nc2C2CC2)nc(-c2cccc3nn(C[C@H](O)c4ccccc4)cc23)c1C1CC1 ? 31

Which DSF reading was recorded for the compound C=Cn1cc2cc(-c3nc(-c4cccc5nn(C[C@H](O)c6ccccc6)cc45)c(C4CC4)n3C)c(C3CC3)nc2n1 ? 30

Which DSF reading was recorded for the compound Cc1nc2nn(CCCN3CCC(F)(F)C3)cc2cc1-n1nc(-c2cccc3nn(C[C@H](O)c4ccccc4)cc23)c(C(C)C)c1C ? 27

Which DSF reading was recorded for the compound Cc1c(C(C)C)c(-c2cccc3nn(C[C@H](O)c4ccccc4)cc23)nn1-c1cc2cn(C)nc2nc1C(C)(C)O ? 24
